// each record: one item and its IC50 for UniProtKB Q9P1W9

C[C@H]1CN(c2ccncc2NCc2ccc(F)c(-c3c(F)cc(OCC(C)(C)O)cc3F)n2)C[C@@H](N)[C@@H]1O; 100 to 1000 nM
C[C@H]1CN(c2ccncc2NCc2ccc(F)c(-c3c(F)cc(OC4CCOCC4)cc3F)n2)C[C@@H](N)[C@@H]1O; ≤ 100 nM
C[C@@H]1C[C@H](N)CN(c2ccncc2NCc2ccc3occ(-c4c(F)cc(CO)cc4F)c3n2)C1; ≤ 100 nM

Ask: # query: IC50 | item `C[C@@H]1C[C@H](N)CN(c2ccncc2NCc2ccc(F)c(-c3c(F)cc(N4CC(C)(O)C4)cc3F)n2)C1` | system: UniProtKB Q9P1W9
Result: ≤ 100 nM

Ask: # query: IC50 | item `C[C@@H]1C[C@H](N)CN(c2ccncc2NCc2nc(-c3c(F)cccc3F)c(F)cc2N)C1` | system: UniProtKB Q9P1W9
Result: ≤ 100 nM

Ask: # query: IC50 | item `C[C@@H]1C[C@H](N)CN(c2ccncc2NCc2ccc(F)c(-c3c(F)cncc3F)n2)C1` | system: UniProtKB Q9P1W9
Result: 100 to 1000 nM

Ask: # query: IC50 | item `C[C@H]1CN(c2ccncc2NCc2ccc(F)c(-c3c(F)cccc3F)n2)C[C@@H](N)[C@@H]1O` | system: UniProtKB Q9P1W9
Result: ≤ 100 nM

Ask: # query: IC50 | item `C[C@@H]1C[C@H](N)CN(c2ccncc2NCc2ccc(F)c(-c3c(F)cc(C4CCOCC4)cc3F)n2)C1` | system: UniProtKB Q9P1W9
Result: ≤ 100 nM

Ask: # query: IC50 | item `C[C@H]1CN(c2ccncc2NCc2ccc(F)c(-c3ccccc3F)n2)C[C@@H](N)[C@@H]1O` | system: UniProtKB Q9P1W9
Result: 100 to 1000 nM

* * *

Recorded pIC50 for the following molecules
# system name: Pim-2 (Homo sapiens (Human))
# Sequence (Q9P1W9 whole entry): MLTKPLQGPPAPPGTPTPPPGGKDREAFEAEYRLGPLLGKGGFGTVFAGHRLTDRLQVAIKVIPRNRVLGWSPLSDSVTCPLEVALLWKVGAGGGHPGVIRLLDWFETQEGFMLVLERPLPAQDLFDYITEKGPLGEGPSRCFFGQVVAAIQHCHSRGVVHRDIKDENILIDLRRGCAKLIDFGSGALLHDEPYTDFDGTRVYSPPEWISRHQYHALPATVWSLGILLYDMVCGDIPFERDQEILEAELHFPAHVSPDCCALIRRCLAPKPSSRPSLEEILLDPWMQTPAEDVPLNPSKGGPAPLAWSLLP
pIC50: −log10 of the molar value.

C[C@H]1CN(c2ccncc2NCc2ccc3occ(-c4ccc(CO)cc4F)c3n2)C[C@@H](N)[C@@H]1O [Example 97]; 6.00 to 7.00
N[C@H]1C[C@@H](C(F)(F)F)CN(c2ccncc2NCc2ccc(F)c(-c3c(F)cc(N4CCOCC4)cc3F)n2)C1 (stereo in doubt) [Example 34]; ≥ 7.00
C[C@H]1CN(c2ccncc2NCc2ccc(F)c(-c3c(F)cccc3C#N)n2)C[C@@H](N)[C@@H]1O [Example 17]; 6.00 to 7.00
C[C@@H]1C[C@H](N)CN(c2ccncc2NCc2ccc(F)c(-c3c(F)cc(CO)cc3F)n2)C1 [Example 36]; ≥ 7.00
C[C@@H]1C[C@H](N)CN(c2ccncc2NCc2ccc(F)c(-c3c(F)cc4ncccc4c3F)n2)C1 [Example 38]; 6.00 to 7.00

Ask: # input molecule: CC(C)c1coc2ccc(CNc3cnccc3N3C[C@H](C)C[C@H](N)C3)nc12 [Example 98] ; wanted: its pIC50
Result: 6.00 to 7.00

Ask: # input molecule: C[C@@H]1C[C@H](N)CN(c2ccncc2NCc2ccc(F)c(C3CCCCC3)n2)C1 [Example 58] ; wanted: its pIC50
Result: 6.00 to 7.00

The values you see were collected from patent US9802918B2.
